IC50 listing for selected compounds.
Target System: G1 APOL1 (Homo sapiens, UniProt O14791, I384M/S342G)
Construct: expressed in transfected cells
Sequence (O14791 28-398 S342G/I384M): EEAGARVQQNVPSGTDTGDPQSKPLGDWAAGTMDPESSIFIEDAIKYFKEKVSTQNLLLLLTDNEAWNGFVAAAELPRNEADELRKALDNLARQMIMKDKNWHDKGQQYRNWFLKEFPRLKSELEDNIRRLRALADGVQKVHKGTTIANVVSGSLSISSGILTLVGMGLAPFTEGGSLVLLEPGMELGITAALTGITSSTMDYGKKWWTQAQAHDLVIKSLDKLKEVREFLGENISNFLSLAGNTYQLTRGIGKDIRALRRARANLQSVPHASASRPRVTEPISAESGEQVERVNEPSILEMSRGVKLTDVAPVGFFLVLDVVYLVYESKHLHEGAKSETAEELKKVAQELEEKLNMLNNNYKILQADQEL
Measurement Protocol: Acute APOL1 Thallium Assay with inducible stable clones of HEK 293 cells
Assay type: cell-based
Settings: HEK 293 T-Rex cells expressing G1 APOL1; read-out: Thallium Assay (IC50)
Readout: IC50

                                    compound        reported
 0  O=C([C@H]1C[C@H](c2c(-c3ccc(F)cc3)[nH]c3c(F)cc(F)cc32)C1)N1CCO[C@H](CO)C1 [Compound 118]       > 1000 nM
 1  CC1(C)CN(C(=O)[C@H]2C[C@H](c3c(-c4ccc(F)cc4)[nH]c4c(F)cc(F)cc43)C2)CCC1O (some centres unmarked) [Compound 114]       > 1000 nM
 2  NC(=O)[C@H]1C[C@H](c2c(-c3ccc(F)cc3)[nH]c3c(F)cc(F)cc32)C1 [Compound 169]  250 to 1000 nM
 3  O=C(NC1(CO)CCC1)[C@H]1C[C@H](c2c(-c3ccc(F)cc3)[nH]c3c(F)cc(F)cc32)C1 [Compound 6]        < 250 nM
 4  CS(=O)(=O)NC(=O)[C@H]1C[C@H](c2c(-c3ccc(F)cc3)[nH]c3c(F)cc(F)cc32)C1 [Compound 213]       > 1000 nM
 5  CN(CC(O)CO)C(=O)[C@H]1C[C@H](c2c(-c3ccc(F)cc3)[nH]c3c(F)cc(F)cc32)C1 (some centres unmarked) [Compound 158]       > 1000 nM
 6  CC(N)(C(=O)NC(=O)[C@H]1C[C@H](c2c(-c3ccc(F)cc3)[nH]c3c(F)cc(F)cc32)C1)C(F)(F)F (some centres unmarked) [Compound 60]       > 1000 nM
 7  O=C([C@H]1C[C@H](c2c(-c3ccc(F)cc3)[nH]c3c(F)cc(F)cc32)C1)N1C[C@H]2C[C@@]2(CO)C1 [Compound 98]       > 1000 nM
 8  O=C1CC[C@@H](NC(=O)[C@H]2C[C@H](c3c(-c4ccc(F)cc4)[nH]c4c(F)cc(F)cc43)C2)C1 [Compound 157]       > 1000 nM
 9  O=C([C@H]1C[C@H](c2c(-c3ccc(F)cc3)[nH]c3c(F)cc(F)cc32)C1)N1CCCC1CCO (some centres unmarked) [Compound 101]       > 1000 nM
10  Cn1cnc(CNC(=O)C2(C)CC(c3c(-c4ccc(F)cc4)[nH]c4c(F)cc(F)cc34)C2)c1 (mixture of isomers) [Compound 282]  250 to 1000 nM
11  O=C1NCC[C@H]1NC(=O)[C@H]1C[C@H](c2c(-c3ccc(F)cc3)[nH]c3c(F)cc(F)cc32)C1 [Compound 45]  250 to 1000 nM
12  O=C(NCC1(O)CC1)[C@H]1C[C@H](c2c(-c3ccc(F)cc3)[nH]c3c(F)cc(F)cc32)C1 [Compound 183]  250 to 1000 nM
13  O=C([C@H]1C[C@H](c2c(-c3ccc(F)cc3)[nH]c3c(F)cc(F)cc32)C1)N1CC(CO)C1 [Compound 223]       > 1000 nM
